tested on: SF-268; experiment: NCI tumour cell line growth inhibition, 48 h
Calls of active or inactive are those of the source. Cut-off read from the data, not from the text of the source: active = GI50 up to about 1.1 µM and inactive = higher.
# key: entry, value: GI50

Sample answers from the record:
Compound	GI50
CC(C)c1cc(C(C)C)c(B(c2ccccc2)c2ccccc2)c(C(C)C)c1B(c1ccccc1)c1ccccc1	> 100 µM (inactive)
CCN1CCC(O)(c2ccc(Oc3ccc(C)cc3)cc2)C(C(=O)c2ccc(Oc3ccc(C)cc3)cc2)C1 (configuration not stated)	17 µM (inactive)
CC(=O)NNc1nc(C)c(C(/C=C/c2ccc3c(c2)OCO3)=N/Nc2ccccc2)s1	> 100 µM (inactive)

### Prompt Recorded GI50 for CCCCCCCCCC(=O)NC(Cc1ccc(O)cc1)C(=O)NCCCNCCCCNCCCNC(=O)[C@@H](N)CCCN=C(N)N (some centres not stated) , please?
### Response 82.2 µM (inactive)

### Prompt Recorded GI50 for `CCCCSC1=N/C(=C\c2ccc(N(C)C)cc2)C(NN)=N1` , please?
### Response > 100 µM (inactive)

### Prompt Recorded GI50 for `COc1cc2c(cc1OC)-c1cc(OC)c(OC)cc1[C@H]1CN3CCC[C@@]3(O)C=C21` , please?
### Response < 0.0001 µM (active)

### Prompt Recorded GI50 for COC(=O)C1=C(OC(=O)/C=C/c2ccc(Cl)cc2)C(C(=O)OC)[C@]2(O)[C@@H](C(=O)OC)[C@H]1C[C@@H](c1ccccc1)[C@@H]2C(=O)OC (some centres not stated) , please?
### Response 4.66 µM (inactive)
